Subject of test: cathepsin S (Homo sapiens, UniProt P25774)
Construct: made in house
Sequence (P25774 115-331): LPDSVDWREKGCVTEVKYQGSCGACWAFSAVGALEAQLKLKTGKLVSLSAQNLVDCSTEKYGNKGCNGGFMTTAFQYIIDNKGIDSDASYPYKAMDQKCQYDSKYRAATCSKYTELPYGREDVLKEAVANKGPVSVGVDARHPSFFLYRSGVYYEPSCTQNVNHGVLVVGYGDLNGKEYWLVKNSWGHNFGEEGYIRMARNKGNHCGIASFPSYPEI
Measurement notes: Kinetic parameters of ACC substrates with cathepsin S
Assay type: biochemical
Test parameters: Fig. 5B; pH 5.5, 37 °C; cathepsin S 5–20 nM; triplicate, SD below 15%
Non-standard residues stand in square brackets, D forms with d. *: point of attachment. Phe(F5) = N[C@@H](Cc1c(F)c(F)c(F)c(F)c1F)C(=O)O; Phe(3-F) = N[C@@H](Cc1cccc(F)c1)C(=O)O; Phe(4-F) = N[C@@H](Cc1ccc(F)cc1)C(=O)O; ACC = NC(=O)Cc1cc(=O)oc2cc(N*)ccc12; ClZ = O=C(OCc1ccccc1Cl)*
Item-by-item account of kcat/KM Cath-S

Entry Ac-H[dV][Phe(F5)]K(ClZ)-{ACC} (SMILES CC(=O)N[C@@H](Cc1c[nH]cn1)C(=O)N[C@@H](C(=O)N[C@@H](Cc1c(F)c(F)c(F)c(F)c1F)C(=O)N[C@@H](CCCCNC(=O)OCc1ccccc1Cl)C(=O)Nc1ccc2c(CC(N)=O)cc(=O)oc2c1)C(C)C) has what kcat/KM Cath-S?
< 10 M⁻¹ s⁻¹

Consider next the substance Ac-R[dV][Phe(F5)]R-{ACC} (SMILES CC(=O)N[C@@H](CCCNC(=N)N)C(=O)N[C@@H](C(=O)N[C@@H](Cc1c(F)c(F)c(F)c(F)c1F)C(=O)N[C@@H](CCCNC(=N)N)C(=O)Nc1ccc2c(CC(N)=O)cc(=O)oc2c1)C(C)C) in the same way.
< 10 M⁻¹ s⁻¹

Consider next the substance Ac-H[dV][Phe(4-F)]R-{ACC} (SMILES CC(=O)N[C@@H](Cc1c[nH]cn1)C(=O)N[C@@H](C(=O)N[C@@H](Cc1ccc(F)cc1)C(=O)N[C@@H](CCCNC(=N)N)C(=O)Nc1ccc2c(CC(N)=O)cc(=O)oc2c1)C(C)C) in the same way.
1,800 M^-1s^-1

Consider next the substance Ac-H[dK][Phe(F5)]R-{ACC} (SMILES CC(=O)N[C@@H](Cc1c[nH]cn1)C(=O)N[C@H](CCCCN)C(=O)N[C@@H](Cc1c(F)c(F)c(F)c(F)c1F)C(=O)N[C@@H](CCCNC(=N)N)C(=O)Nc1ccc2c(CC(N)=O)cc(=O)oc2c1) in the same way.
< 10 M⁻¹ s⁻¹

Consider next the substance Ac-H[dV][Phe(3-F)]R-{ACC} (SMILES CC(=O)N[C@@H](Cc1c[nH]cn1)C(=O)N[C@@H](C(=O)N[C@@H](Cc1cccc(F)c1)C(=O)N[C@@H](CCCNC(=N)N)C(=O)Nc1ccc2c(CC(N)=O)cc(=O)oc2c1)C(C)C) in the same way.
814 M⁻¹ s⁻¹
